Source listed as ChEMBL document CHEMBL4049438.

experiment: Volume of distribution in steady state in Wistar rat at 0.64 mg/kg, iv administered as solution up to 24 hrs by LC-MS/MS analysis; assay type: ADME, organism-based; conditions: in vivo, read-out: Vdss
MEASUREMENT TYPE: Vd (L/kg)
One number for each entry, in L/kg.

Query block: Requested read-out: Vd. Entry: `CCNC(=O)Nc1cc2c(-c3cc[n+](COP(=O)([O-])O)c(C)c3)ccc(CNC(=O)OC)c2cn1`
Result block: 0.5

====

target: hERG (KCNH2) (Homo sapiens); test: Inhibition of human ERG expressed in CHO cells at 10 uM after 3 mins at -80 mV holding potential by Qpatch assay; type: cell-based; conditions: CHO cells expressing human ERG
Sequence (Q12809 whole entry): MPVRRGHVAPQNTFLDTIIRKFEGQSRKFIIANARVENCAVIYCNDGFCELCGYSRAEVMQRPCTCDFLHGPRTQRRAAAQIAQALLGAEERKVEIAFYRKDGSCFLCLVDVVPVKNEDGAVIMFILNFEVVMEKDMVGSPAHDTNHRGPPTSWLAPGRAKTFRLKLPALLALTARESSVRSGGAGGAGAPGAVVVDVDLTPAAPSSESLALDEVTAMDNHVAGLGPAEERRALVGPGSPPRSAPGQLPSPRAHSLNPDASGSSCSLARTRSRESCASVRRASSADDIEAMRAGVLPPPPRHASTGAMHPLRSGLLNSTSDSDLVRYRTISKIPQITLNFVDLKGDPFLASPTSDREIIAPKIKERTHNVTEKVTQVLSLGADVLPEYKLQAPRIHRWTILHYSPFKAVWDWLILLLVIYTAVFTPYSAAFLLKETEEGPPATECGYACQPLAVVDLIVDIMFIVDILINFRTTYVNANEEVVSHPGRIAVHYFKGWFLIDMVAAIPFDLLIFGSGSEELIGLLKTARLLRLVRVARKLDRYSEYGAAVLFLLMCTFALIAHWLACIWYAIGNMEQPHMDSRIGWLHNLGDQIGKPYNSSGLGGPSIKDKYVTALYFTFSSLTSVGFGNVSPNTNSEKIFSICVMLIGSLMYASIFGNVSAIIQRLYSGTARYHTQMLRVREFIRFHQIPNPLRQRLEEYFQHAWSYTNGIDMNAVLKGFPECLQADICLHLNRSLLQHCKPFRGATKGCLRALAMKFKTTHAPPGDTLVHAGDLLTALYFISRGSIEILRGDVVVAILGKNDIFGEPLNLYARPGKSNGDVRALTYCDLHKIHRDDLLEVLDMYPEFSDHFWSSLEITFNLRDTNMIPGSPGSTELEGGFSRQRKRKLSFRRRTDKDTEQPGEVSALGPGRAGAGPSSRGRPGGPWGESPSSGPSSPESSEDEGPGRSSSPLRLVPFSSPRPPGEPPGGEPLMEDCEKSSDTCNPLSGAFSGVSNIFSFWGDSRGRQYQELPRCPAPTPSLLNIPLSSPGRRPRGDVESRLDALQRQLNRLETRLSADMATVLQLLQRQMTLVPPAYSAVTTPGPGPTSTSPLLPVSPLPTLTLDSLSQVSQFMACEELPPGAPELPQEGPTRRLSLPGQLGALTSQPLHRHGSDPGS
MEASUREMENT TYPE: inhibition at 0.05 h, 10 µM (%)
Answers are plain numbers, in %.

State the recorded inhibition at 0.05 h, 10 µM for every item in the following list.
1. CCNC(=O)Nc1cc2c(-c3ccnc(C)c3)ccc(CNC(=O)OC3CCNCC3(F)F)c2cn1 (stereo not given)
2. CCNC(=O)Nc1cc2c(-c3ccncc3)ccc(CNC(=O)OCCNC)c2cn1
3. CCNC(=O)Nc1cc2c(-c3ccncc3)ccc(CNC(=O)OC)c2cn1
4. CCNC(=O)Nc1cc2c(-c3ccnc(C)c3)ccc(CNC(=O)CCOC)c2cn1

Result block:
[8, 3, 41, 0]

For each of the items listed, what is its inhibition at 0.05 h, 10 µM?
1. CCNC(=O)Nc1cc2c(-c3ccnc(C)c3)ccc(CNC(=O)C3CC3)c2cn1
2. CCNC(=O)Nc1cc2c(-c3ccnc(C)c3)ccc(CNC(=O)OCCOC)c2cn1
3. CCNC(=O)Nc1cc2c(-c3ccnc(C)c3)ccc(COC(=O)N[C@@H]3CCNC[C@H]3F)c2cn1 (relative stereo)
4. CCNC(=O)Nc1cc2c(-c3ccnc(C)c3)ccc(COC(=O)N[C@@H]3CCNC[C@@H]3F)c2cn1 (relative stereo)
5. CCNC(=O)Nc1cc2c(-c3ccncc3)ccc(CNC(=O)OCCN3CCOCC3)c2cn1.Cl
6. CCNC(=O)Nc1cc2c(-c3ccncc3)ccc(CNC(=O)OCCO)c2cn1

Result block:
[75, 20, 9, 8, 0, 0]
